- Tested on: OVCAR-8 ovarian
- assayExplanation: NCI-60 one-dose screen, 48 h (100 = growth as untreated, 0 = no growth, -100 = all killed)
- recordedConditions: 10 µM unless noted
Compounds without any hit were thinned out: in the full panel of roughly 83,000, 20% have a hit. Activity calls are given as the source filed them. Rule for the calls: active = growth percent below 10; inactive = the rest.
propertyLabel: growth

Task item: For CCOP(=O)(NC[C@H]1O[C@](O)(CO)[C@@H](O)[C@@H]1O)OCC , write its growth.
Reply: 103% (inactive)

Task item: Quote growth reported for OCCCCCNC1CCCCC1 please.
Reply: 103% (inactive)

Task item: Indicate its recorded growth; the compound in question is COC(=O)[C@@H](C)C[C@H](Cc1ccccc1)NC(=O)c1csc([C@@H](C[C@H](C(C)C)N(C)C(=O)[C@H](C)NC(=O)[C@H]2CCCCN2C)OC(C)=O)n1
Reply: 26.4% (inactive)

Task item: Give me measured growth, please, for this compound: Cc1cc(NC(=O)NCc2ccc(N3C(N)=NC(N)=NC3(C)C)cc2)ccc1S(=O)(=O)F
Reply: -4.46% (active)

Task item: Note down growth recorded for Fc1ccc2c(c1)c(-c1nc(-c3c[nH]c4ncccc34)cs1)cn2CCCCN1CCCCC1
Reply: -82.9% (active)

Task item: Complete the entry with growth for O=C([O][Hg][CH2]C1COCC([CH2][Hg][O]C(=O)c2ccccc2)O1)c1ccccc1 (stereo not drawn)
Reply: 94% (inactive)

Task item: Specify measured growth for CCCCOc1ccc(C(N)Cc2ccccc2)cc1 (stereo not drawn) .
Reply: 97.6% (inactive)

Task item: Quote growth reported for CC(=O)Oc1ccccc1C(=O)NCCC[Se]C#N please.
Reply: -13.9% (active)

Task item: Kindly indicate its recorded growth. Item: CN[C@]1(c2ccccc2Cl)CCCC[C@H]1NCCCN1CCN(C)CC1
Reply: 97.2% (inactive)

Task item: Please give measured growth of the following entry: CC(C)=CC1C(C(=O)OCc2cccc(Oc3ccccc3)c2)C1(C)C (stereo not drawn)
Reply: 100% (inactive)

Task item: Write down growth measured for item CO[C@H]1CC[C@@]2(C)C(=CC[C@@H]3[C@@H]2CC[C@]2(C)C(=O)C(=O)C[C@@H]32)C1
Reply: 93.3% (inactive)

Task item: Provide growth value for the following compound: O=C(CC1(O)C(=O)N(Cc2ccccc2)c2ccccc21)c1ccc(C(=O)NCC2CCC3(CC2)OOC2(CCCCC2)OO3)cc1 (stereo not drawn)
Reply: -14.8% (active)

Task item: Give the reported growth for this compound. CCCC(=O)O[C@@H]1C[C@H]2C[C@@H](O[C@@H]3O[C@@H](C)[C@@H](O)[C@@H](O)[C@H]3OC)C[C@@H](C[C@@H](C)/C=C/C=C\C[C@@H]3O[C@@H](C[C@@H]3C)[C@@H](O)C[C@H]3C[C@@]1(O)C(=O)O3)O2
Reply: 41.1% (inactive)

Task item: Give the reported value of growth for this record: CCOC(=O)CCC(NC(=O)C(Cc1ccc(N(CCCl)CCCl)cc1)NC=O)C(=O)OCC (stereo not drawn)
Reply: 44.5% (inactive)

Task item: Recall and state the measured growth for C/C(CC(C)(C)N1CC1)=N\NC(=O)Nc1cccc2ccccc12 .
Reply: 44.1% (inactive)

Task item: Answer with the recorded growth for the compound listed here: Nc1nnnc2nc[nH]c12
Reply: 11.5% (inactive)

Task item: Assign growth to the following record: CCc1ccccc1[C@@H]1C[C@]2(C)CCO[C@@H]2OO1
Reply: 96% (inactive)

Task item: Output measured growth for this item: CC1[C@H](C)OC(=O)CC(O)CC(O)CC(O)CCC(O)C(O)C[C@]2(O)CC(O)C(C(=O)O)C(CC(OC3O[C@H](C)[C@@H](O)[C@H](N)[C@@H]3O)/C=C/C=C/C=C/C=C/CC/C=C/C=C/[C@H](C)[C@H]1O)O2 (stereo partly drawn)
Reply: 92% (inactive)
